Can you tell me IC50 for the items I'm about to list?
assay: human group III sPLA2 inhibitors, dose response, biochemical, QFRET, IC50 (AID 743457);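 note: green fluorescence rise as the enzyme cleaves BODIPY PC-A2 in liposomes; potency for inhibition of the enzyme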
Calls of active or inactive are those of the source.

I'd like to know its IC50. The compound in question is Cc1cc(C)c2sc(NNC(=O)C3COc4ccccc4O3)nc2c1 (centres undefined) 26.2 µM (inactive)

Please report the recorded IC50 for `FC(F)(F)c1cnc(NN=C(S)Nc2cccnc2)c(Cl)c1` . > 122 µM (inactive)

// returns reported IC50 for input `COc1cc(N=c2ssnc2Cl)c(OC)cc1Cl` 92.1 µM (inactive)

// returns reported IC50 for input `COc1ccc(-n2cc(-c3ccccc3)nc2S)cc1` > 122 µM (inactive)

---

molecular target: Apoptotic protease-activating factor 1 (Homo sapiens, UniProt O14727); format: functional
Sequence (O14727 whole entry): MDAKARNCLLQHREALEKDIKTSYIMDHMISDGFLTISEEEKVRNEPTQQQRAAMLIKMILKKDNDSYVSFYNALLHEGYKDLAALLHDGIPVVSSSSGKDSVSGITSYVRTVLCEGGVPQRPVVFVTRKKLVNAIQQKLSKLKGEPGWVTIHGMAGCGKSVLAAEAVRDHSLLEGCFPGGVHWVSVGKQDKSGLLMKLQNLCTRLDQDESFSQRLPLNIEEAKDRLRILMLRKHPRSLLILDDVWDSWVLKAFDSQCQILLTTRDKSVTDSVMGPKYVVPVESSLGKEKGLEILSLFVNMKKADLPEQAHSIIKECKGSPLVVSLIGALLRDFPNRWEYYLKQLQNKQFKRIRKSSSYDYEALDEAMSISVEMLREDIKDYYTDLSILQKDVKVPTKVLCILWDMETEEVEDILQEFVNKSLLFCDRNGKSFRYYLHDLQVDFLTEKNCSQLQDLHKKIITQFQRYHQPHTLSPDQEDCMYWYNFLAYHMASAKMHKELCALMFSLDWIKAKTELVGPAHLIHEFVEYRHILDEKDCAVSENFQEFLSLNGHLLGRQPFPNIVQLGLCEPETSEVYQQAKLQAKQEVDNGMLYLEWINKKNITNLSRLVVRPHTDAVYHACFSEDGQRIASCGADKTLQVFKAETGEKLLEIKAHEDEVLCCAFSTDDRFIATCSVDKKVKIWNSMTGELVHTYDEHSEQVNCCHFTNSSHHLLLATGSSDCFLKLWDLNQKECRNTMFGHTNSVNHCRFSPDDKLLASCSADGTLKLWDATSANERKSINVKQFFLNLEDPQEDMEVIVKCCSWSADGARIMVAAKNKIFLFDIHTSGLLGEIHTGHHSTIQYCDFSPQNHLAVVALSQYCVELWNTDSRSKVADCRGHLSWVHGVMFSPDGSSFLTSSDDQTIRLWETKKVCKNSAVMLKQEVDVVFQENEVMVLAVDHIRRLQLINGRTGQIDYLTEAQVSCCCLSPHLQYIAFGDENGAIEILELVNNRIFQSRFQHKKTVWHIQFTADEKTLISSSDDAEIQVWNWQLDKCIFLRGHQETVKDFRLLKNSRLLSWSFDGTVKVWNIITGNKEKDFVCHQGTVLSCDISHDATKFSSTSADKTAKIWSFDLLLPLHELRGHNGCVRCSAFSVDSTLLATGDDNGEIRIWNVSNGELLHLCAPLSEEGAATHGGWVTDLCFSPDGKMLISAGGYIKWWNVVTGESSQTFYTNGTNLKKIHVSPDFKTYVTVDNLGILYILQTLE
The source made the active and inactive calls.
Please respond with reported IC50 for every item in the list.

Fill in: IC50 of `NS(=O)(=O)c1ccc(NC2=CC(=O)C(=O)c3ccccc32)cc1` is ___ 2.08 µM (active)

So what's the measured IC50 for this one? `CC(C)n1cnc2c(NCc3ccccc3)cc(OCC3CCN(C)CC3)cc21` 6.63 µM (active)

Query (molecule): CC(Oc1cccc(Cl)c1)C(=O)Nc1cc(S(=O)(=O)N2CCOCC2)ccc1N1CCCCC1 (stereo not given) ; field requested: IC50 74.9 µM (active)

Reported IC50, molecule `CC(C)N(C(=O)Nc1ccc2nsnc2c1)C(C)C` : ____ 6.61 µM (active)

Any idea what its IC50 is? The molecule is `COc1cc(-c2c(C#N)c(O)nc3c2c(C)nn3-c2ccccc2)ccc1O` 20.5 µM (active)

---

molecular target: Cytochrome P450 2C9 (Homo sapiens, UniProt P11712)
Sequence (P11712 whole entry): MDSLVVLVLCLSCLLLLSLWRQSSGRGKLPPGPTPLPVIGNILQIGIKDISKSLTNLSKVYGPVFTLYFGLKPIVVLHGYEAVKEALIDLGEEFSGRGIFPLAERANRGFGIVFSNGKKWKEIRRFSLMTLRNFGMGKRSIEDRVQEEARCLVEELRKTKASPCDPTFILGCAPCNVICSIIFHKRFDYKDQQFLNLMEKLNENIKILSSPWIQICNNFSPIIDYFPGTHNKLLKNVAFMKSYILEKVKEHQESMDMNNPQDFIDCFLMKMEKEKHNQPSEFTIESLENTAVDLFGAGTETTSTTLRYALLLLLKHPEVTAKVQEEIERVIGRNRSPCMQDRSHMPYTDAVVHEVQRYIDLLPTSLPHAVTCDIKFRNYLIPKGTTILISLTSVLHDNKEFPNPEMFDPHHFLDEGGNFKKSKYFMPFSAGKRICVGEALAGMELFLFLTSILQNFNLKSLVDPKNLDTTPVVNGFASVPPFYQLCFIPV
readout-name: AC50

Requested read-out: AC50. Entry: `COc1cc(C=O)ccc1OCCCOc1ccccc1C(=O)O` 17.8 µM (inconclusive)

Data request, read-out AC50, for `Cc1nc(-c2c(C(F)(F)F)noc2-c2ccc(O)cc2O)cs1` 3.16 µM (inconclusive)

Query: AC50; subject: `COc1ccc(Cn2c(N)c(C(=O)NCc3ccco3)c3nc4ccccc4nc32)cc1` 1 µM (inconclusive)

Bench note: what AC50 did `O=C(N/N=C/c1ccc(O)cc1)c1ccc(COc2cc(Cl)ccc2Cl)o1` show? 6.31 µM (inconclusive)

Which AC50 is listed for COc1cccc(C2C3=C(CC(C)(C)CC3=O)OC(N)=C2[N+](=O)[O-])c1 (stereo unspecified) ? 12.6 µM (inconclusive)

So what's the measured AC50 for this one? `O=C(Nc1cccc(Br)c1)/C(=C\c1cccnc1)NC(=O)c1ccco1` 39.8 µM (inconclusive)

Suppose we examine the compound `CC1(C)CO[C@H](CC(=O)O)CN1` ; what AC50 value has been reported? 39.8 µM (inconclusive)

Would you mind telling me what AC50 value was observed for `Cc1nc2ncnn2c(C)c1CCC(=O)NCCC1=CCCCC1` ? 14.1 µM (inconclusive)

Requested read-out: AC50. Entry: `Cn1c(=O)c2[nH]c(SCCN3CCOCC3)nc2n(C)c1=S` 6.31 µM (inconclusive)

Please look up its AC50: `COc1ccc(S(N)(=O)=O)cc1C(=O)NCCCN1CCN(c2cccc(Cl)c2)CC1.CS(=O)(=O)O` 0.1 µM (inconclusive)

For `Cc1noc(NS(=O)(=O)c2ccc(NC(=O)c3ccc(Br)o3)cc2)c1C` , what is its reported AC50? 14.1 µM (inconclusive)
